Source of measurements: the supplement of paper PMC10883282

- System: SK-LMS-1
- Experimental details: relative viability vs DMSO control (72 h) (fraction); higher = more viable cells
- Experimental setup: 0.00051 µM
Measured property: relative viability

> print(dat)
                                   compound   measured.property  endpoint.value
1  COC(=O)[C@@]1(O)C[C@H]2O[C@]1(C)n1c3ccccc3c3c4c(c5c6ccccc6n2c5c31)C(=O)NC4 [K-252a]  relative viability            1.01
2  COc1cc(OC)c(/C=C/S(=O)(=O)Cc2ccc(OC)c(NCC(=O)O)c2)c(OC)c1 [Rigosertib]  relative viability            1.05
3  COc1cc(CCc2cc(NC(=O)c3ccc(N4CC(C)NC(C)C4)cc3)n[nH]2)cc(OC)c1 (stereo not drawn) [AZD-4547]  relative viability           0.953
4  CC[C@@H]1CN(C(=O)NCC(F)(F)F)C[C@@H]1c1cnc2cnc3[nH]ccc3n12 [Upadacitinib]  relative viability            1.05
5  CN1CC[C@@H](NC(=O)Nc2ccc(C#N)cc2)C[C@@H]1c1nc2ccccc2[nH]1 [Glasdegib]  relative viability            1.09
6  N#CC1(c2ccc(NC(=O)c3cccnc3NCc3ccncc3)cc2)CCCC1 [Apatinib]  relative viability            1.06
7  O=c1sn(-c2cccc3ccccc23)c(=O)n1Cc1ccccc1 [Tideglusib]  relative viability            1.01
8  N#CCNC(=O)c1ccc(-c2ccnc(Nc3ccc(N4CCOCC4)cc3)n2)cc1 [Momelotinib]  relative viability            1.13

---

- Test system: RD-ES
- Experimental details: relative viability vs DMSO control (72 h) (fraction); higher = more viable cells
- Experimental setup: 0.00457 µM
Some compounds, each annotated with its measured relative viability.
Measured property: relative viability

> print(dat)
                         compound.structure  endpoint.value
1  CCN1C(=O)N(c2c(F)c(OC)cc(OC)c2F)Cc2cnc3[nH]c(CN4CCOCC4)cc3c21           0.959
2  O=C(Nc1nc2cccc(-c3ccc(CN4CCS(=O)(=O)CC4)cc3)n2n1)C1CC1           0.946
3  CC(C)Oc1ccc(-c2nn([C@@H](C)c3oc4ccc(F)cc4c(=O)c3-c3cccc(F)c3)c3ncnc(N)c23)cc1F               1
4  CC(C)(O)CNc1nc(Nc2ccnc(C(F)(F)F)c2)nc(-c2cccc(C(F)(F)F)n2)n1            1.01
5          O=S(=O)(c1cccc2cnccc12)N1CCCNCC1            0.98
6  COC(=O)N[C@@H](C)CNc1nccc(-c2cn(C(C)C)nc2-c2cc(Cl)cc(NS(C)(=O)=O)c2F)n1           0.956

---

Each item that follows carries a reported relative viability.
- Test system: A204
- Experimental details: relative viability vs DMSO control (72 h) (fraction); higher = more viable cells
- Experimental setup: 10 µM
Measured property: relative viability

> print(dat)
                         compound.structure  endpoint.value
1  Cn1cc(C2=C(c3cn(C4CCN(Cc5ccccn5)CC4)c4ccccc34)C(=O)NC2=O)c2ccccc21           0.906
2  CCc1cnn2c(NCc3ccc[n+]([O-])c3)cc(N3CCCC[C@H]3CCO)nc12            0.18
3  CN1CCN(c2ccc(C(=O)Nc3n[nH]c4ccc(Cc5cc(F)cc(F)c5)cc34)c(NC3CCOCC3)c2)CC1           0.228
